The following binders are shown together with reported koff values.
# assayed.system: T1, human IL-2 (recombinant IL-2, Humanzyme) (human, UniProt P60568 21-153)
# T1 construct: It may include the signal peptide; also called hIL-2; interleukin-2
# T1 sequence (P60568 21-153 limits assumed): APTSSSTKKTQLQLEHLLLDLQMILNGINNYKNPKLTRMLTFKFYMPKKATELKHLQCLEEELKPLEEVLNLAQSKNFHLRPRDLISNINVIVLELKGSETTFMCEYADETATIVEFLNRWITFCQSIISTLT
# experiment.summary: SPR as in Example 1 (IgG captured, IL-2 injected)
Kindly provide the numeric value in s⁻¹ only, without the unit symbol.

binder	koff / s⁻¹
F5.1.11.04 (antibody, V domains shown) VH: QLQLQESGPGLVKPSQTLSLTCTVSGGSISSGGYYWSWIRQHPGKGLEWIGYIYYSGSNYWNPSLKSRVTISVDTSKNQFSLKLSSVTAADTAVYYCARTPTVTGDWFDPWGRGTLVTVSS VL: NFMLTQPHSVSESPGKTVTISCTRSSGSIASNYVQWYQQRPGSSPTTVIYEDNQRPSGVPDRFSGSIDSSSNSASLTISGLKTEDEADYYCQSYDTRDVVFGGGTKLTVL	0.000458
F5.1.11.02 (antibody, V domains shown, also called F5111.2; 5.1.11.2) VH: QLQLQESGPGLVKPSQTLSLTCTVSGGSISSGGYYWSWIRQHPGKGLEWIGYIYKSGSAYYSPSLKSRVTISVDTSKNQFSLKLSSVTAADTAVYYCARTPTVTGDWFDPWGRGTLVTVSS VL: NFMLTQPHSVSESPGKTVTISCTRSSGSIASNYVQWYQQRPGSSPTTVIYEDNQRPSGVPDRFSGSIDSSSNSASLTISGLKTEDEADYYCQTYDSIDVYFGGGTKLTVL	0.000574

// switching to the query binder
stdin: Give me measured koff, please, for this binder: F5.1.11 (antibody, V domains shown) VH: QLQLQESGPGLVKPSQTLSLTCTVSGGSISSGGYYWSWIRQHPGKGLEWIGYIYYSGSTYYNPSLKSRVTISVDTSKNQFSLKLSSVTAADTAVYYCARTPTVTGDWFDPWGRGTLVTVSS VL: NFMLTQPHSVSESPGKTVTISCTRSSGSIASNYVQWYQQRPGSSPTTVIYEDNQRPSGVPDRFSGSIDSSSNSASLTISGLKTEDEADYYCQSYDSSNVVFGGGTKLTVL
stdout: 0.00711
